# TEST_SYSTEM: JAK2 (Homo sapiens)
# Construct: All four purified enzymes contain only the catalytic domain; His (N); purchased Carna Biosciences, Inc; host or cells: baculovirus expression system
# ASSAY_REMARKS: JAK2 kinase assay (HTRF, inhibition of phosphorylation of a synthetic peptide)
# Format: biochemical
# MEASUREMENT_PARAMETERS: catalytic domain, His-tag; 4 μM ATP (Km); read-out: JAK2 kinase inhibitory activity (EC50)
pEC50: −log10 of the molar value.
ENDPOINT: pEC50

Sample answers from the record:
Cn1cncc1C(=O)N1CCN(c2ncnc3[nH]ccc23)CC2(CC2)C1: 6.00 to 7.00
COc1cc(OC)cc(C(=O)N2CCN(c3ncnc4[nH]ccc34)CC3(CC3)C2)c1: < 6.00
N#Cc1ccc(/C=C/C(=O)N2CCN(c3ncnc4[nH]ccc34)CC3(CC3)C2)cc1: 6.00 to 7.00

Okay, next one:
(Q) State its pEC50: Cc1ccncc1C(=O)N1CCN(c2ncnc3[nH]ccc23)CC2(CC2)C1
(A) < 6.00

---

# TEST_SYSTEM: JAK3 (Homo sapiens, UniProt P52333)
# Construct: All four purified enzymes contain only the catalytic domain; His (N)
# Sequence (P52333 822-1111 limits assumed): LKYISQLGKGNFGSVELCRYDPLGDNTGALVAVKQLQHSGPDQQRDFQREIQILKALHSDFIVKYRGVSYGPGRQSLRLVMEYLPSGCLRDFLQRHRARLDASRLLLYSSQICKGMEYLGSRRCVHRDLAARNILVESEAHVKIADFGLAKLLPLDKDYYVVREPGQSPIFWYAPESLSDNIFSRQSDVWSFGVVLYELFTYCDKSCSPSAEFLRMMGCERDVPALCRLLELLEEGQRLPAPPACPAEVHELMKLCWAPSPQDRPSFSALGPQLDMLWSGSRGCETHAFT
# ASSAY_REMARKS: JAK3 kinase assay (HTRF, inhibition of phosphorylation of a synthetic peptide)
# MEASUREMENT_PARAMETERS: catalytic domain, His-tag; 2 μM ATP (Km); read-out: JAK3 kinase inhibitory activity (EC50)
pEC50: −log10 of the molar value.
Quick reference for pEC50 among some molecules

Sample answers from the record:
NS(=O)(=O)c1ccc(OCC(=O)N2CCN(c3ncnc4[nH]ccc34)CC3(CC3)C2)cc1: > 7.00
Cc1ccccc1C(=O)N1CCCN(c2ncnc3[nH]ccc23)CC12CC2: < 6.00
N#Cc1ccc(C(=O)N2CCCN(c3ncnc4[nH]ccc34)CC23CC3)cc1: 6.00 to 7.00
O=C(Cc1nnn[nH]1)N1CCN(c2ncnc3[nH]ccc23)CC2(CC2)C1: 6.00 to 7.00
N#CCOc1ccc(C(=O)N2CCN(c3ncnc4[nH]ccc34)CC3(CC3)C2)cc1: 6.00 to 7.00
N#Cc1ccccc1CC(=O)N1CCN(c2ncnc3[nH]ccc23)CC2(CC2)C1: 6.00 to 7.00

(Q) State its pEC50: O=C(c1ccncc1)N1CCN(c2ncnc3[nH]ccc23)CC2(CC2)C1
(A) < 6.00

(Q) State its pEC50: Cc1ncc(CC(=O)N2CCN(c3ncnc4[nH]ccc34)CC3(CC3)C2)s1
(A) < 6.00

---

# TEST_SYSTEM: JAK2 (Homo sapiens, UniProt O60674)
# Construct: All four purified enzymes contain only the catalytic domain; His (N); purchased Carna Biosciences, Inc; host or cells: baculovirus expression system
# Sequence (O60674 849-1124 limits assumed): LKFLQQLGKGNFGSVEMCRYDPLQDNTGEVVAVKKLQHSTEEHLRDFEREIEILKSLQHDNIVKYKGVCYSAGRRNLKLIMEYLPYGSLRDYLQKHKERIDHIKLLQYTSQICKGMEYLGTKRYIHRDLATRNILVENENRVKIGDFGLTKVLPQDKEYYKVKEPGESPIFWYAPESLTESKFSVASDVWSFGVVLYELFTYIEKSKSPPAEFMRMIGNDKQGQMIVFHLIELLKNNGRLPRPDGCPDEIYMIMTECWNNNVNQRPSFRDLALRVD
# ASSAY_REMARKS: JAK2 kinase assay (HTRF, inhibition of phosphorylation of a synthetic peptide)
# Assay type: biochemical
# MEASUREMENT_PARAMETERS: catalytic domain, His-tag; 4 μM ATP (Km); read-out: JAK2 kinase inhibitory activity (EC50)
# Experimental: JAK1, JAK2, JAK3 and TYK2 Kinase Assays: Human baculovirus-expressed JAK1, 2, 3 and TYK2 were purchased from Carna Biosciences, Inc. All four purified enzymes contain only the catalytic domain. […] Inhibition of phosphorylation of a synthetic peptide was measured in an HTRF-based assay using the TK substrate-Biotin from the CisbioHTRFKinEASE TK kit. […] The HTRF signal is read using an Envision plate reader.
Quick reference for EC50 among some molecules

Sample answers from the record:
N#Cc1ccc2[nH]c(C(=O)N3CCN(c4ncnc5[nH]ccc45)CC4(CC4)C3)cc2c1: 100 to 1000 nM
Cc1[nH]ncc1C(=O)N1CCN(c2ncnc3[nH]ccc23)CC2(CC2)C1: 100 to 1000 nM
O=C(c1ccc(O)nc1)N1CCCN(c2ncnc3[nH]ccc23)CC12CC2: 100 to 1000 nM

Okay, next one:
(Q) State its EC50: Cc1ccc(C(=O)N2CCN(c3ncnc4[nH]ccc34)CC3(CC3)C2)cc1S(N)(=O)=O
(A) < 100 nM

---

# TEST_SYSTEM: JAK1 (Homo sapiens)
# Construct: JAK1 (aa 850-1154) and TYK2 (aa 871-1187) are expressed with an N-terminally fused GST-tag; GST (N)
# Sequence (P23458 850-1154): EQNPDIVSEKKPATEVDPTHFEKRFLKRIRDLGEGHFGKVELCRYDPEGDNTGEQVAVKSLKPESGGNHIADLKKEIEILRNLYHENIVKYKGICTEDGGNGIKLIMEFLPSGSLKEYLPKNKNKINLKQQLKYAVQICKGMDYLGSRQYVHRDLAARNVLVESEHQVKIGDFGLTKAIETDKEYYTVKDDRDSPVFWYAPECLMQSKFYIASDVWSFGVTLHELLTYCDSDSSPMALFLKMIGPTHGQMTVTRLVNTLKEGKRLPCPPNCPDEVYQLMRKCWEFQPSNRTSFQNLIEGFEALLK
# ASSAY_REMARKS: JAK1 kinase assay (HTRF, inhibition of phosphorylation of a synthetic peptide)
# MEASUREMENT_PARAMETERS: catalytic domain aa 850-1154, GST-tag; 7 μM ATP (Km); read-out: JAK1 kinase inhibitory activity (EC50)
pEC50: −log10 of the molar value.
Quick reference for pEC50 among some compounds

Sample answers from the record:
Cc1cc(C(=O)N2CCN(c3ncnc4[nH]ccc34)CC3(CC3)C2)ccn1: 6.00 to 7.00
O=C(c1ccno1)N1CCCN(c2ncnc3[nH]ccc23)CC12CC2: > 7.00
O=C(Cc1nnn[nH]1)N1CCCN(c2ncnc3[nH]ccc23)CC12CC2: < 6.00
O=C(c1cccc(O)n1)N1CCCN(c2ncnc3[nH]ccc23)CC12CC2: 6.00 to 7.00
O=C(c1ccc(S(=O)(=O)NCCc2cccs2)cc1)N1CCN(c2ncnc3[nH]ccc23)CC2(CC2)C1: 6.00 to 7.00
O=C(c1cc[nH]n1)N1CCN(c2ncnc3[nH]ccc23)CC2(CC2)C1: 6.00 to 7.00
Cc1ncccc1C(=O)N1CCN(c2ncnc3[nH]ccc23)CC2(CC2)C1: < 6.00

Okay, next one:
(Q) State its pEC50: O=C(c1ccc(F)cc1)N1CCN(c2ncnc3[nH]ccc23)CC2(CC2)C1
(A) 6.00 to 7.00

---

# TEST_SYSTEM: TYK2 (Homo sapiens, UniProt P29597)
# Construct: JAK1 (aa 850-1154) and TYK2 (aa 871-1187) are expressed with an N-terminally fused GST-tag; GST (N); purchased Carna Biosciences, Inc; host or cells: baculovirus expression system
# Sequence (P29597 871-1187): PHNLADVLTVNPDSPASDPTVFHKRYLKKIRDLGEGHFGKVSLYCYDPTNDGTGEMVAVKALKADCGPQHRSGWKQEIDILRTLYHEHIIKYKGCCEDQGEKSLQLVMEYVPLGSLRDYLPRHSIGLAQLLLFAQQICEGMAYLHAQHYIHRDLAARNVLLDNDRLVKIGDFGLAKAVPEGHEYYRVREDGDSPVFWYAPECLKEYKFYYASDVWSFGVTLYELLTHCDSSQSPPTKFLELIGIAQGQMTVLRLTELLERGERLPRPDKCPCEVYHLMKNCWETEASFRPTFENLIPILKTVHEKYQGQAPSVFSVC
# ASSAY_REMARKS: TYK2 kinase assay (HTRF, inhibition of phosphorylation of a synthetic peptide)
# Assay type: biochemical
# MEASUREMENT_PARAMETERS: catalytic domain aa 871-1187, GST-tag; 13 μM ATP (Km); read-out: TYK2 kinase inhibitory activity (EC50)
ENDPOINT: EC50

Sample answers from the record:
COCCNS(=O)(=O)c1ccc(C(=O)N2CCN(c3ncnc4[nH]ccc34)CC3(CC3)C2)cc1 [Example 74]: > 1000 nM
O=C(Cc1cccs1)N1CCN(c2ncnc3[nH]ccc23)CC2(CC2)C1 [Example 30]: 100 to 1000 nM
COc1cc(C(=O)N2CCN(c3ncnc4[nH]ccc34)CC3(CC3)C2)ccc1S(N)(=O)=O [Example 53]: > 1000 nM
c1nc(N2CCNC3(CC2)CC3)c2cc[nH]c2n1 [Example 291]: > 1000 nM
CS(=O)(=O)c1ccc(CC(=O)N2CCN(c3ncnc4[nH]ccc34)CC3(CC3)C2)cc1 [Example 55]: > 1000 nM
O=C(c1cc2c(s1)CCC2)N1CCN(c2ncnc3[nH]ccc23)CC2(CC2)C1 [Example 21]: > 1000 nM

(Q) State its EC50: CC(=O)N1CCC(C(=O)N2CCN(c3ncnc4[nH]ccc34)CC3(CC3)C2)CC1 [Example 6]
(A) > 1000 nM

(Q) State its EC50: N#Cc1cccc(C(=O)N2CCCN(c3ncnc4[nH]ccc34)CC23CC3)c1 [Example 57]
(A) 100 to 1000 nM

(Q) State its EC50: N#Cc1ccc(CC(=O)N2CCN(c3ncnc4[nH]ccc34)CC3(CC3)C2)cc1 [Example 10]
(A) 100 to 1000 nM

(Q) State its EC50: N#Cc1ccc(C(=O)N2CCN(c3ncnc4[nH]ccc34)CC3(CC3)C2)cc1 [Example 62]
(A) > 1000 nM

(Q) State its EC50: CCCCC(=O)Nc1nc(N2CCNCC3(CC3)C2)c2cc[nH]c2n1 [Example 294]
(A) > 1000 nM

(Q) State its EC50: O=C(c1ccc(S(=O)(=O)NCCc2cccs2)cc1)N1CCN(c2ncnc3[nH]ccc23)CC2(CC2)C1 [Example 50]
(A) > 1000 nM

(Q) State its EC50: CNS(=O)(=O)c1ccc(C(=O)N2CCN(c3ncnc4[nH]ccc34)CC3(CC3)C2)cc1 [Example 72]
(A) > 1000 nM

---

# TEST_SYSTEM: JAK3 (Homo sapiens)
# Construct: All four purified enzymes contain only the catalytic domain; His (N)
# ASSAY_REMARKS: JAK3 kinase assay (HTRF, inhibition of phosphorylation of a synthetic peptide)
# MEASUREMENT_PARAMETERS: catalytic domain, His-tag; 2 μM ATP (Km); read-out: JAK3 kinase inhibitory activity (EC50)
# Method: JAK1, JAK2, JAK3 and TYK2 Kinase Assays: Human baculovirus-expressed JAK1, 2, 3 and TYK2 were purchased from Carna Biosciences, Inc. All four purified enzymes contain only the catalytic domain. […] Inhibition of phosphorylation of a synthetic peptide was measured in an HTRF-based assay using the TK substrate-Biotin from the CisbioHTRFKinEASE TK kit. […] The HTRF signal is read using an Envision plate reader.
ENDPOINT: EC50

Sample answers from the record:
COCCNS(=O)(=O)c1ccc(C(=O)N2CCN(c3ncnc4[nH]ccc34)CC3(CC3)C2)cc1 [Example 74]: 100 to 1000 nM
N#CCc1ccc(C(=O)N2CCN(c3ncnc4[nH]ccc34)CC3(CC3)C2)cc1 [Example 12]: > 1000 nM

(Q) State its EC50: CCCCC(=O)Nc1nc(N2CCNCC3(CC3)C2)c2cc[nH]c2n1 [Example 294]
(A) > 1000 nM

(Q) State its EC50: Cc1ccc(S(=O)(=O)N2CCCN(c3ncnc4[nH]ccc34)CC23CC3)cc1 [Example 94]
(A) > 1000 nM

(Q) State its EC50: CC(C)(C)c1ccc(CC(=O)N2CCN(c3ncnc4[nH]ccc34)CC3(CC3)C2)cc1 [Example 267]
(A) 100 to 1000 nM

(Q) State its EC50: CC1CN(c2ncnc3[nH]ccc23)CC2(CC2)CN1 (stereo not shown) [Example 293]
(A) > 1000 nM

(Q) State its EC50: O=C(Cc1ccc(F)cc1)N1CCN(c2ncnc3[nH]ccc23)CC2(CC2)C1 [Example 158]
(A) 100 to 1000 nM

(Q) State its EC50: N#Cc1cccc(C(=O)N2CCCN(c3ncnc4[nH]ccc34)CC23CC3)c1 [Example 57]
(A) 100 to 1000 nM

(Q) State its EC50: O=C(c1cccc(Cl)c1)N1CCCN(c2ncnc3[nH]ccc23)CC12CC2 [Example 179]
(A) 100 to 1000 nM

(Q) State its EC50: O=C(Cc1ccc(Cl)cc1)N1CCCN(c2ncnc3[nH]ccc23)CC12CC2 [Example 126]
(A) 100 to 1000 nM

(Q) State its EC50: N#CCc1ccc(CC(=O)N2CCN(c3ncnc4[nH]ccc34)CC3(CC3)C2)cc1 [Example 266]
(A) 100 to 1000 nM

(Q) State its EC50: O=C(c1cncs1)N1CCN(c2ncnc3[nH]ccc23)CC2(CC2)C1 [Example 239]
(A) 100 to 1000 nM

(Q) State its EC50: Cc1oncc1C(=O)N1CCN(c2ncnc3[nH]ccc23)CC2(CC2)C1 [Example 108]
(A) 100 to 1000 nM

(Q) State its EC50: N#Cc1ccc(CCC(=O)N2CCN(c3ncnc4[nH]ccc34)CC3(CC3)C2)cc1 [Example 115]
(A) < 100 nM
